Target chain: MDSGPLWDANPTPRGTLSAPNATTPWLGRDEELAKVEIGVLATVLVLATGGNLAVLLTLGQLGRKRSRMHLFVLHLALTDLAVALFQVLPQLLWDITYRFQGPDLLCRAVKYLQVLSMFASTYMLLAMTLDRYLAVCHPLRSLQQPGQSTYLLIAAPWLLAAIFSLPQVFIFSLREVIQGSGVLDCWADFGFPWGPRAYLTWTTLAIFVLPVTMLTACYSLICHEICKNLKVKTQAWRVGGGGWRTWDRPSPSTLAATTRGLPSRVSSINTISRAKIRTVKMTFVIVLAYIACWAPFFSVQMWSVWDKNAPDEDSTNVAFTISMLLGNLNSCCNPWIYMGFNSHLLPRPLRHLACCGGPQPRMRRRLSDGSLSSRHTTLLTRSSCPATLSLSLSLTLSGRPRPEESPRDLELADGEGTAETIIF
pKi: −log10 of the molar value.
// reported pKi for each item listed

Solved cases below.
COc1cc(CN2CCCC2)ccc1C1(N2CCC[C@H]2c2ncco2)C(=O)N(S(=O)(=O)c2ccc(C#N)cc2)c2ccc(Cl)cc21 (stereo partly drawn) [Example 157]
7.00 to 8.00
COc1ccc(S(=O)(=O)N2C(=O)C(c3cc(CN4CCNCC4)ccc3OC)(N3CCC[C@H]3c3ncco3)c3cc(Cl)c(Cl)cc32)cc1 (stereo partly drawn) [Example 75]
7.00 to 8.00
COc1ccc(S(=O)(=O)N2C(=O)C(c3cc(CN4CCN(C)CC4)ccc3OC)(N3C[C@H](OC(C)(C)C)C[C@H]3c3ncco3)c3cc(Cl)ccc32)cc1 (stereo partly drawn) [Example 214]
> 8.00
CNCc1ccc(C2(N3CCC[C@H]3c3ncco3)C(=O)N(S(=O)(=O)c3ccc(OC)cc3)c3ccc(C#N)cc32)c(OC)c1 (stereo partly drawn) [Example 97]
7.00 to 8.00
CCN(CC)Cc1ccc(OC)c(C2(N3CCC[C@H]3c3ncco3)C(=O)N(S(=O)(=O)c3ccc(OC)cc3)c3cc(Cl)ccc32)c1 (stereo partly drawn) [Example 31]
6.00 to 7.00
COc1ccc(S(=O)(=O)N2C(=O)C(c3ccc(CN(C)C)cc3OC)(N3CCC[C@H]3c3ncco3)c3cc(C#N)ccc32)cc1 (stereo partly drawn) [Example 41]
7.00 to 8.00

Entry under review: COc1ccc(CN2CCN(C)CC2)cc1C1(N2CCC[C@H]2c2ncco2)C(=O)N(S(=O)(=O)c2ccc(C#N)cc2)c2ccc(Cl)cc21 (stereo partly drawn) [Example 81] . Reported pKi? 7.00 to 8.00

Entry CNCc1ccc(OC)c(C2(NCc3ncco3)C(=O)N(S(=O)(=O)c3ccc(OC)cc3)c3ccc(Cl)cc32)c1 (stereo not drawn) [Example 129] : reported pKi = ? 7.00 to 8.00

Which value of pKi has been reported for COc1ccc(CN2CCN(C)CC2)cc1C1(N2CCC[C@H]2c2ncco2)C(=O)N(S(=O)(=O)c2ccc(F)cc2)c2ccc(Cl)cc21 (stereo partly drawn) [Example 82] in the records? 6.00 to 7.00

Sample CCNCc1ccc(F)c(C2(N3CCC[C@H]3c3ncco3)C(=O)N(S(=O)(=O)c3ccc(OC)cc3)c3ccc(Cl)cc32)c1 (stereo partly drawn) [Example 176] — what was its pKi? 7.00 to 8.00

Fill in the blank: the reported pKi of COc1ccc(S(=O)(=O)N2C(=O)C(c3ccc(CN4CCN(CCO)CC4)cc3OC)(N3CCC[C@H]3c3ncco3)c3cc(C#N)ccc32)cc1 (stereo partly drawn) [Example 147] is ____. > 8.00

Please report the recorded pKi for COc1ccc(S(=O)(=O)N2C(=O)C(c3ccc(CN4CCN(C)CC4)cc3OC)(N3C[C@H](O)C[C@H]3c3ncco3)c3cc(C#N)ccc32)cc1 (stereo partly drawn) [Example 178] . > 8.00

Value lookup for pKi; key = COc1ccc(S(=O)(=O)N2C(=O)C(c3cc(CN4CCN(CCO)CC4)ccc3OC)(N3CCC[C@H]3c3ncco3)c3cc(Cl)c(Cl)cc32)cc1 (stereo partly drawn) [Example 107] 7.00 to 8.00

Return reported pKi; argument: COc1ccc(S(=O)(=O)N2C(=O)C(c3cc(CN(C)C)ccc3OC)(N3CCC[C@H]3c3ncco3)c3cc(C#N)ccc32)cc1 (stereo partly drawn) [Example 46] 7.00 to 8.00

Given COc1ccc(S(=O)(=O)N2C(=O)C(c3cc(CN(C)C)ccc3OC)(N3CCC[C@H]3c3ncco3)c3cc(Cl)c(Cl)cc32)cc1 (stereo partly drawn) [Example 64] , state its recorded pKi. 7.00 to 8.00

Data request, read-out pKi, for COc1ccc(S(=O)(=O)N2C(=O)C(c3ccc(CN4CCN(C(C)C)CC4)cc3OC)(N3C[C@H](O)C[C@H]3c3ncco3)c3cc(Cl)ccc32)cc1 (stereo partly drawn) [Example 166] > 8.00

Please report the recorded pKi for COc1ccc(S(=O)(=O)N2C(=O)C(c3cc(CN4CCN(C)CC4)ccc3OC)(N3C[C@H](OC)C[C@H]3c3ncco3)c3cc(Cl)ccc32)cc1 (stereo partly drawn) [Example 224] . > 8.00

State the recorded pKi for this entry: CCN1CCN(Cc2ccc(C3(N4CCC[C@H]4c4ncco4)C(=O)N(S(=O)(=O)c4ccc(OC)cc4)c4cc(F)c(Cl)cc43)c(OC)c2)CC1 (stereo partly drawn) [Example 193] > 8.00
